# credit: ChEMBL document CHEMBL1132014

# assayedTarget: D(2) dopamine receptor (Homo sapiens, UniProt P14416)
# Sequence (P14416 whole entry): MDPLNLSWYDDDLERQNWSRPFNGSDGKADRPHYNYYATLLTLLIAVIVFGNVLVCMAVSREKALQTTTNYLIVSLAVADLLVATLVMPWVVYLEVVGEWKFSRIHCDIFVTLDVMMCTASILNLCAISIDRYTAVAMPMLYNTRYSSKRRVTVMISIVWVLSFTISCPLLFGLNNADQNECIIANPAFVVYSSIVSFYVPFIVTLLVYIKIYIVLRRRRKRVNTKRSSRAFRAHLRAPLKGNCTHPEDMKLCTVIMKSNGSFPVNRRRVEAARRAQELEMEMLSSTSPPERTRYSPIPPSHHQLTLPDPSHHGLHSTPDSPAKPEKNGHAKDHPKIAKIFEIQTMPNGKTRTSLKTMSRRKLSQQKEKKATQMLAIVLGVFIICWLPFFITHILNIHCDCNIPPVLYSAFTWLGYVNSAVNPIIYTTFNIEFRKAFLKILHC
# protocolNotes: Displacement [125I]iodosulpiride from human Dopamine receptor D2 expressed in CHO cells
assayEndpoint: Ki

Known results for compounds:
COc1cccc(/C=C/C(=O)NCCCCN2CCc3ccc(OS(=O)(=O)C(F)(F)F)cc3C2)c1; 316 nM
O=C(/C=C/c1ccc2ccccc2n1)NCCCCN1CCc2ccc(OS(=O)(=O)C(F)(F)F)cc2C1; 398 nM
O=C(NCCCCN1CCc2ccccc2C1)c1ccc(-c2ccccc2)cc1; 501 nM
Cc1nnc(-c2ccc(-c3ccc(C(=O)NCCCCN4CCc5ccc(OS(=O)(=O)C(F)(F)F)cc5C4)cc3)cc2)o1; 100 nM

Next item in the queue.
Input: State, in one line, measured Ki of `O=C(/C=C/c1ccc2[nH]ccc2c1)NCCCCN1CCc2ccc(OS(=O)(=O)C(F)(F)F)cc2C1`
Output: 200 nM
